Cited source: paper PMC8225628

Target: SARS-CoV-2 PL^pro (Severe acute respiratory syndrome coronavirus 2)
Assay: biochemical
Conditions: ReFRAME hits, 10 µM
*1 amine or outer side, *2 acyl side, *3 side chain or, on linkers, in order; H or OH if unused. Where a SMILES comes first, the peptide text is derived from it. Bridges are numbered along the chain shown (N, C = ends). [ ]: non-standard residue; d: D form. The star is where a group is joined. hTyr(3S-OH,4S-OH,3'-OSO3H) = N[C@H](C(=O)O)[C@H](O)[C@@H](O)c1ccc(O)c(OS(=O)(=O)O)c1; Orn(4R-OH,5R-OH) = O=C([C@H](C[C@@H](O)[C@@H](O)N[*:3])N[*:1])[*:2]; Pro(3S-OH,4S-Me) = C[C@H]1CN[C@H](C(=O)O)[C@H]1O; X1 = CCCCCOc1ccc(-c2cc(-c3ccc(C(=O)*)cc3)no2)cc1; Gln(3R-OH) = NC(=O)C[C@@H](O)[C@H](N)C(=O)O; Hyp = O=C(O)[C@@H]1C[C@@H](O)CN1
Threshold rule: PL^pro % inhibition at 10 µM greater than or equal to 20% is rule met; below that, rule not met.

Worked examples, 2 compounds total:
INSERT INTO measurements (compound, class_name) VALUES
  ('[Cl][Hg][Cl] [mercuric chloride]', 'rule not met'),
  ('COc1ccc(/C=C/CCCCOc2ccc(C(=O)c3cccc(C(=O)O)c3)cc2CCC(=O)O)cc1 [LY 223982]', 'rule met');

For this compound, is measured PL^pro % inhibition at 10 µM 20% or higher? CCC[C@@H](NC(=O)N1C(=O)C(CC)(CC)[C@@H]1Oc1ccc(CC(=O)O)cc1)c1ccc(C)cc1 [L 680833]
rule not met

For this compound, is measured PL^pro % inhibition at 10 µM 20% or higher? COc1ccc(-c2ccc(OCc3cc(C(=O)[N-]S(=O)(=O)c4ccccc4C)oc3C)cc2)nc1.[Na+] [BGC-20-1531]
rule met

For this compound, is measured PL^pro % inhibition at 10 µM 20% or higher? CCCCCOc1ccc(-c2cc(-c3ccc(C(=O)N[C@H]4C[C@@H](O)[C@@H](O)NC(=O)[C@@H]5[C@@H](O)[C@@H](C)CN5C(=O)[C@H]([C@H](O)CC(N)=O)NC(=O)[C@H]([C@H](O)[C@@H](O)c5ccc(O)c(OS(=O)(=O)[O-])c5)NC(=O)[C@@H]5C[C@@H](O)CN5C(=O)[C@H]([C@@H](C)O)NC4=O)cc3)no2)cc1.[Na+] [micafungin Sodium, reference compound] (X1-[Orn(4R-OH,5R-OH)]T[Hyp][hTyr(3S-OH,4S-OH,3'-OSO3H)][Gln(3R-OH)][Pro(3S-OH,4S-Me)]; lactam 1-C)
rule met

For this compound, is measured PL^pro % inhibition at 10 µM 20% or higher? O=C(O)c1cccc(C[C@@H]2COc3ccc(OCc4nc5cc(F)ccc5s4)cc3[C@@H]2O)c1 [(+)-CP-85958]
rule not met

For this compound, is measured PL^pro % inhibition at 10 µM 20% or higher? CN1CCCN=C1/C=C/c1cccc(O)c1.O=C(O)c1cc2ccccc2c(Cc2c(O)c(C(=O)O)cc3ccccc23)c1O [oxantel (pamoate), reference compound]
rule not met
